Data origin: PubChem BioAssay AID950

target: Apoptosis regulator Bcl-2 (Homo sapiens) (UniProt P10415); assay: inhibitors of Bim-Bcl-2 binding, primary screen, biochemical, multiplexed, human Bcl-2 family (AID 950); conditions: Bead-based flow cytometry, Bim peptide-Bcl-2 binding; at 10 µM; stronger effect = higher value;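 note: 0% = no compound wells with probe peptide and 100% = reference peptide inhibitor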
Sequence (P10415 whole entry, looked up): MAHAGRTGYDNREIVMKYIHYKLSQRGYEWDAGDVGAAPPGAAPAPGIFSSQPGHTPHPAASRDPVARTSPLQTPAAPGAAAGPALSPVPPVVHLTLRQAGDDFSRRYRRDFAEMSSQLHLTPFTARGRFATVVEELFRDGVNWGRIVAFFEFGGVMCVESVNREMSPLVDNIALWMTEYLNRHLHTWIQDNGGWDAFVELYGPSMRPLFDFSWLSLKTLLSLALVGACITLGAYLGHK
Out of some 190,000 compounds screened, about 120 (0.063%) were called active. This is one part of a sample in which actives are shown more often than they occur.
Consider the following molecules; for each one, report its inhibition.
Report the figure in % without appending any unit label.

Tested on Apoptosis regulator Bcl-2 (Homo sapiens) (UniProt P10415): CCn1c(=O)cc(SCC(=O)NCCC2=CCCCC2)c2ccccc21 . Observed inhibition: 8

Tested on Apoptosis regulator Bcl-2 (Homo sapiens) (UniProt P10415): CC(=O)c1c(C)[nH]c(C(=O)OCC(=O)NCCC(C)C)c1C . Observed inhibition: -3

Tested on Apoptosis regulator Bcl-2 (Homo sapiens) (UniProt P10415): Cc1ccnc(NC(=O)C(C)N2C(=O)c3ccccc3C2=O)c1 (stereo unspecified) . Observed inhibition: 0

Tested on Apoptosis regulator Bcl-2 (Homo sapiens) (UniProt P10415): Cc1cccc(-c2nc3ccccc3c(=O)n2NC(=O)Cc2ccc(Cl)cc2)c1 . Observed inhibition: -11

Tested on Apoptosis regulator Bcl-2 (Homo sapiens) (UniProt P10415): Fc1cccc(CSc2nnc3ccc(-c4ccncc4)nn23)c1 . Observed inhibition: 3

Tested on Apoptosis regulator Bcl-2 (Homo sapiens) (UniProt P10415): Cn1ncc(N2CCN(S(=O)(=O)c3ccc(Br)cc3)CC2)c(Cl)c1=O . Observed inhibition: -9

Tested on Apoptosis regulator Bcl-2 (Homo sapiens) (UniProt P10415): COC(=O)c1cc(C)sc1NC(=O)CC1Nc2ccccc2NC1=O (stereo unspecified) . Observed inhibition: 0

Tested on Apoptosis regulator Bcl-2 (Homo sapiens) (UniProt P10415): COC(=O)c1c(NC(=O)CN2CCN(S(=O)(=O)c3ccccc3[N+](=O)[O-])CC2)sc2c1CCC(C)C2 (stereo unspecified) . Observed inhibition: 2

Tested on Apoptosis regulator Bcl-2 (Homo sapiens) (UniProt P10415): CC(=O)c1ccc(NC(=O)C(C)N(C)CC(=O)Nc2ccccc2Cl)cc1 (stereo unspecified) . Observed inhibition: 1

Tested on Apoptosis regulator Bcl-2 (Homo sapiens) (UniProt P10415): COc1ccc(C(=O)C2CCCN(Cc3cccn3-c3ccccn3)C2)c(C)c1 (stereo unspecified) . Observed inhibition: 0

Tested on Apoptosis regulator Bcl-2 (Homo sapiens) (UniProt P10415): CCCCC(=O)NCc1ccc(F)cc1 . Observed inhibition: 0

* * *

molecular target: Apoptosis regulator Bcl-2 (Homo sapiens); assay: inhibitors of Bim-Bcl-2 binding, primary screen, biochemical, multiplexed, human Bcl-2 family (AID 950); conditions: Bead-based flow cytometry, Bim peptide-Bcl-2 binding; at 10 µM; stronger effect = higher value;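 note: 0% = no compound wells with probe peptide and 100% = reference peptide inhibitor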
Screen size: about 190,000 compounds; about 120 (0.063%) were called active. The full list was thinned out, with actives kept by preference.
propertyLabel: inhibition (%)
Report the figure in % without appending any unit label.

// field: inhibition; key: COCCn1c(C)cc(C(=O)COC(=O)/C=C/c2cccc(OC)c2)c1C ; value = -5

// field: inhibition; key: O=C(Cc1ccc([N+](=O)[O-])cc1)N/N=C/c1ccco1 ; value = -4

// field: inhibition; key: CC(=O)Nc1ccc(S(=O)(=O)NC2(C(F)(F)F)C(=O)Nc3c2c(=O)[nH]c(=O)n3Cc2ccccc2)cc1 (stereo not given) ; value = -4

// field: inhibition; key: COc1ccc(NC(=S)Nc2ccc(S(N)(=O)=O)cc2)c(C)c1 ; value = -4

// field: inhibition; key: Cc1cccc(-n2c(SCC(N)=O)nc3c(c2=O)C2(CCCCC2)Cc2ccccc2-3)c1 ; value = 1

// field: inhibition; key: CCN(CC)c1ccc2c(Nc3ccccc3)c(C=O)c(=O)oc2c1 ; value = -4

// field: inhibition; key: Cn1cc(CCC(=O)N2CCCC(C(=O)c3ccc(C(C)(C)C)cc3)C2)cn1 (stereo not given) ; value = -5

// field: inhibition; key: CC1CCN(C(=S)c2cccc(O)c2)CC1 ; value = -5

// field: inhibition; key: COc1cc([N+](=O)[O-])ccc1NC(=S)N1CCN(c2ccccn2)CC1 ; value = 0

// field: inhibition; key: CSc1ccc(/C=N/NC(=O)c2cccc(Cl)c2)cc1 ; value = -7

* * *

target: Apoptosis regulator Bcl-2 (Homo sapiens) (UniProt P10415); assay: inhibitors of Bim-Bcl-2 binding, primary screen, biochemical, multiplexed, human Bcl-2 family (AID 950); conditions: Bead-based flow cytometry, Bim peptide-Bcl-2 binding; at 10 µM; stronger effect = higher value;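 note: 0% = no compound wells with probe peptide and 100% = reference peptide inhibitor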
The whole screen tested about 190,000 compounds, of which about 120 (0.063%) were called active. Many of the other results were omitted from the sample, so actives are more common in it than they were.
propertyLabel: inhibition

// field: inhibition; key: CC(C)c1ccc(C2C(C#N)=C(N)Oc3c2oc(CO)cc3=O)cc1 (configuration not stated) ; value = -2% (inactive)

// field: inhibition; key: S=C(NCc1ccco1)Nc1ccc2c(c1)OCCO2 ; value = -1% (inactive)

// field: inhibition; key: COCCOC(=O)c1c(C)oc2cc(Br)c(OCC(N)=O)cc12 ; value = 0% (inactive)

// field: inhibition; key: C=CS(=O)c1sc(Cl)c(N2CCOCC2)c1[N+](=O)[O-] (configuration not stated) ; value = 14% (inactive)

// field: inhibition; key: N#CCC(=O)N/N=C/c1ccc(SCC(=O)Nc2ccccc2)o1 ; value = -1% (inactive)

// field: inhibition; key: O=C(CSc1ccc(-c2ccc(F)cc2)nn1)Nc1ccc2c(c1)OCCO2 ; value = -6% (inactive)

// field: inhibition; key: C/C(=N\NC(=O)c1cccnc1)c1ccc(-n2ccnc2)cc1 ; value = -4% (inactive)

// field: inhibition; key: O=C(Nc1cccc(F)c1)N1C2CCC1CC(O)(c1cccnc1)C2 (configuration not stated) ; value = 0% (inactive)

// field: inhibition; key: O=C(Oc1c(-c2ccco2)oc2ccccc2c1=O)c1cccnc1 ; value = -4% (inactive)

// field: inhibition; key: CCc1nnc(NC(=O)CSc2nnnn2-c2cccc(C(C)=O)c2)s1 ; value = -2% (inactive)

// field: inhibition; key: O=S(=O)(c1ccccc1)c1nc(-c2ccccc2F)oc1NCc1cccnc1 ; value = 2% (inactive)

// field: inhibition; key: Nc1nc(SCC(=O)N2CCN(S(=O)(=O)c3ccc(Cl)cc3)CC2)n[nH]1 ; value = -1% (inactive)

// field: inhibition; key: CCOC(=O)Cn1nnnc1C ; value = -3% (inactive)

// field: inhibition; key: Cc1cccc(NC(=O)CN2C(=O)c3ccccc3C2=O)c1C ; value = 0% (inactive)

// field: inhibition; key: Nc1nnc(SCn2nnc3ccccc3c2=O)s1 ; value = -5% (inactive)

// field: inhibition; key: COc1ccc(/C(C)=N/Nc2cc(C(F)(F)F)ccc2Cl)c(OC)c1 ; value = 2% (inactive)

// field: inhibition; key: Cc1sc2c(c1C)c(=O)n(-c1ccccc1)c(=O)n2CC(=O)NCC1CCCO1 (configuration not stated) ; value = 1% (inactive)

// field: inhibition; key: COc1ccc(/C=C/C(=O)OCC(=O)NCc2cccs2)cc1OC ; value = 0% (inactive)

// field: inhibition; key: CCOC(=O)c1[nH]cnc1C(=O)Nc1ccccc1C ; value = 1% (inactive)

// field: inhibition; key: CCc1ccc(NC(=O)Cn2nc(C)c([N+](=O)[O-])c2C)cc1 ; value = -2% (inactive)

// field: inhibition; key: CC(NC(=S)Nc1ccccc1)C1COc2ccccc2O1 (configuration not stated) ; value = -6% (inactive)

// field: inhibition; key: O=C(NNS(=O)(=O)c1ccc(F)cc1)c1cnccn1 ; value = 0% (inactive)
